These data points were gathered from PubChem BioAssay AID1851.

# Assayed Target: Cytochrome P450 2D6 (Homo sapiens) (UniProt P10635)
# Sequence (P10635 whole entry, looked up): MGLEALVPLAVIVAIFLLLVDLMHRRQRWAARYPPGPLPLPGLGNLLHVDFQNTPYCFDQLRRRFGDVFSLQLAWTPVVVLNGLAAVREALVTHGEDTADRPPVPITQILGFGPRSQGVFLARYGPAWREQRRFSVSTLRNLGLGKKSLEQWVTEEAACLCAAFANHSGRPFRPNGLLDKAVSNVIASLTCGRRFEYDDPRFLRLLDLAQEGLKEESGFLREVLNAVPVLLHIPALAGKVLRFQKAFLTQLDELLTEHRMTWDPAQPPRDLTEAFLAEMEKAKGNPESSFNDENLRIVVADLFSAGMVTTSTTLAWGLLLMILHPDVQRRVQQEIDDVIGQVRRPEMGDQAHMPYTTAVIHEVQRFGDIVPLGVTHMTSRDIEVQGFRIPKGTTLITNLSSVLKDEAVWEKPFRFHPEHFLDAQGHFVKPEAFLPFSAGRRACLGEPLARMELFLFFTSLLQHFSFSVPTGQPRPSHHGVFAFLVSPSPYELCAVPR
# Procedure Details: Cytochrome panel assay with activity outcomes; note: % is set by controls: 0 for no effect and ±100 for the full control effect
# Cond: recombinant CYP, pro-luciferin dealkylation, luminescence, p450-cyp2d6; series mostly up to 57.1 µM
Among all 16,000 compounds or so, about 2,600 (16%) were called active. Not shown: some 20% with an inconclusive outcome. The sample holds actives, similar compounds and a random draw of the others, so the mix is not that of the screen.
Experimental Readout: outcome

Chemical Smiles | outcome
CCC(=O)O[C@H]1CC[C@H]2[C@@H]3CCC4=CC(=O)CC[C@]4(C)[C@H]3CC[C@]12C | inactive
CCN1C[C@@]2(COC)CC[C@H](O)[C@@]34[C@@H]2C[C@@H]([C@@H]13)[C@]1(O)C[C@@H](OC)C2C[C@H]4[C@H]1[C@H]2OC(C)=O | inactive
CC(=NCc1ccco1)c1c(O)n(-c2ccccc2)c(=O)[nH]c1=O | inactive
CC1=CC(=O)C2=C(C)C[C@@H](O)[C@@H]3[C@@H](OC(=O)[C@H]3C)[C@H]12 | inactive
Cc1ccc(-c2nc3ccccc3c(=O)n2-c2ncccc2C)cc1 | inactive
CN1CCC(c2c[nH]c3ccc(O)cc23)CC1 | inactive
CCCCn1c(O)c(C=NCCN2CCCCC2)c(=O)[nH]c1=O | inactive
C=C(C)[C@H]1CC[C@]2(CO)CC[C@]3(C)[C@@H](CC[C@H]4[C@@]5(C)CC[C@@H](O)C(C)(C)[C@@H]5CC[C@@]43C)[C@H]12 | inactive

Query :: Name the recorded outcome for O=c1c(O)c(-c2cc(O)c(O)c(O)c2)oc2cc(O)cc(O)c12 .
Result :: inactive

====

# Assayed Target: Cytochrome P450 2D6 (Homo sapiens)
# Procedure Details: Cytochrome panel assay with activity outcomes; note: % is set by controls: 0 for no effect and ±100 for the full control effect
# Cond: recombinant CYP, pro-luciferin dealkylation, luminescence, p450-cyp2d6; series mostly up to 57.1 µM
About 2,600 (16%) of roughly 16,000 compounds were called active. Not shown: some 20% with an inconclusive outcome. Shown is part of a subset that was picked to be rich in actives.
Experimental Readout: activity, negative = inhibition

Worked cases, activity, negative = inhibition given:
Compound | Assayed Target | activity, negative = inhibition
FC(F)(F)c1nc2ccc(SSc3ccc4nc(C(F)(F)F)[nH]c4c3)cc2[nH]1 | Cytochrome P450 2D6 (Homo sapiens) | -8.27% [at 11.4 µM] (inactive)
CS(=N)(=O)CC[C@H](N)P(=O)(O)O (stereo not given in full) | Cytochrome P450 2D6 (Homo sapiens) | -6.15% [at 11.4 µM] (inactive)
N#CCCCC[N+]12CN3CN(CN(C3)C1)C2 | Cytochrome P450 2D6 (Homo sapiens) | 1.51% [at 11.4 µM] (inactive)

Query :: Name the recorded activity, negative = inhibition for Cn1c(=O)c2[nH]cnc2n(C)c1=O.[CH2-][C@H](Cc1cccc2cc(C(=O)O)c(=O)oc12)OC.[Hg].[OH-] .
Result :: 10.9% [at 11.4 µM] (inactive)

Query :: Could you do the same for CSCC[C@@H](N)P(C)(=O)O , please?
Result :: 3.31% [at 11.4 µM] (inactive)

Query :: Could you do the same for O=C1N[C@@]2(CN3CCC2CC3)C(=O)N1CN(Cc1ccccc1)c1ccccc1 , please?
Result :: 2.51% [at 11.4 µM] (inactive)

Query :: Could you do the same for Cc1ncc([N+](=O)[O-])n1CCN=[N+]=[N-] , please?
Result :: 0.431% [at 11.4 µM] (inactive)

Query :: Could you do the same for O=[As](O)(O)c1ccc2nc3cc([As](=O)(O)O)ccc3nc2c1 , please?
Result :: 14.5% [at 11.4 µM] (inactive)

Query :: Could you do the same for O=C(O)[C@@H]1[C@H](C(=O)O)[C@]2(Cl)C(Cl)=C(Cl)[C@@]1(Cl)C2(Cl)Cl , please?
Result :: -8.74% [at 11.4 µM] (inactive)

Query :: Could you do the same for Cc1cc[c]([Sb]2[O][C@H]([C@H](O)[C@H](O)C(=O)O)[C@@H](CO)[O]2)cc1 , please?
Result :: 10.9% [at 11.4 µM] (inactive)

Query :: Could you do the same for N[C@@H](CP(=O)(O)O)C(=O)O , please?
Result :: -1.79% [at 11.4 µM] (inactive)

Query :: Could you do the same for O=C(O)CS(=O)(=O)C(c1ccccc1)c1ccccc1 , please?
Result :: 8.36% [at 11.4 µM] (inactive)

Query :: Could you do the same for O=c1[nH]cnc2[nH]cc(CN3CCCCC3)c12 , please?
Result :: 7.9% [at 11.4 µM] (inactive)

Query :: Could you do the same for c1cncc(CNCCN2CCNCC2)c1 , please?
Result :: -5.64% [at 11.4 µM] (inactive)

Query :: Could you do the same for COc1cc2c(cc1OC)[C@]13CC[N@+]4(C)CC5=CCO[C@H]6CC(=O)N2[C@@H]1[C@@H]6[C@@H]5C[C@]34O , please?
Result :: -2.44% [at 11.4 µM] (inactive)

Query :: Could you do the same for O=C(O)Cc1ccc([N+](=O)[O-])cc1[N+](=O)[O-] , please?
Result :: 5.45% [at 11.4 µM] (inactive)

Query :: Could you do the same for CO[C@H]1[C@H](O)[C@H](O[C@@H]2[C@H](Oc3cccc4c(O)c5c(=O)oc6ccc(C)c7c(=O)oc(c34)c5c67)O[C@@H](C)[C@H](O)[C@H]2O)O[C@@H](C)[C@@H]1O , please?
Result :: 19.6% [at 11.4 µM] (inactive)

Query :: Could you do the same for C[C@]12CCC3c4ccc(OCC(=O)O)cc4CCC3C1CCC2=O (stereo not given in full) , please?
Result :: 12.6% [at 11.4 µM] (inactive)

Query :: Could you do the same for C[C@H]1CC[C@@]2(NC1)O[C@@H]1C[C@@H]3[C@@H]4CC=C5C[C@@H](O)CC[C@]5(C)[C@@H]4CC[C@]3(C)[C@H]1[C@@H]2C , please?
Result :: 7.13% [at 11.4 µM] (inactive)

Query :: Could you do the same for CC1(C)CCC(C)(C)c2c1ccc(O)c2Cc1c(O)ccc2c1C(C)(C)CCC2(C)C , please?
Result :: 4.74% [at 11.4 µM] (inactive)
